Recorded values, source PubChem BioAssay AID1851.

target: Cytochrome P450 2C19 (Homo sapiens)
measurementDescription: Cytochrome panel assay with activity outcomes
experimentalParameters: recombinant CYP, pro-luciferin dealkylation, luminescence, p450-cyp2c19; series mostly up to 57.1 µM
The campaign covered roughly 16,000 compounds. About 5,800 (36%) were called active. Inconclusive results (about 23%) are left out. Calls follow the shape of the dose curve; as a rule, active = well fitted curve in the direction sought with a large enough effect; inconclusive = small, poorly fitted or top-dose-only effect, or effect the other way; inactive = no such curve, though single readings can be large or run the other way. Some of the results follow.
Permitted responses: active, inactive

These solved cases illustrate the format of a correct answer.
>>> classname("Clc1cccc(Oc2cnc3ccccc3n2)c1")
"active"
>>> classname("O=C(N/N=C/c1cccc([N+](=O)[O-])c1)c1cc2c(ccc3ccccc32)o1")
"inactive"
>>> classname("Cn1cc(-c2nc3cnc(Oc4cccc(Cl)c4)nc3n(CCC#N)c2=O)c2ccccc21")
"inactive"

Now take the following compound into account.
Query :: Kindly provide the recorded test outcome for the following compound: CC(C)CC(C(=O)NCC1CCCO1)N(C(=O)Cn1nnc(-c2ccc(F)cc2)n1)c1ccccc1F (stereo not given)
Result :: active

###

target: Cytochrome P450 2C19 (Homo sapiens) (UniProt P33261)
Sequence (P33261 whole entry, looked up): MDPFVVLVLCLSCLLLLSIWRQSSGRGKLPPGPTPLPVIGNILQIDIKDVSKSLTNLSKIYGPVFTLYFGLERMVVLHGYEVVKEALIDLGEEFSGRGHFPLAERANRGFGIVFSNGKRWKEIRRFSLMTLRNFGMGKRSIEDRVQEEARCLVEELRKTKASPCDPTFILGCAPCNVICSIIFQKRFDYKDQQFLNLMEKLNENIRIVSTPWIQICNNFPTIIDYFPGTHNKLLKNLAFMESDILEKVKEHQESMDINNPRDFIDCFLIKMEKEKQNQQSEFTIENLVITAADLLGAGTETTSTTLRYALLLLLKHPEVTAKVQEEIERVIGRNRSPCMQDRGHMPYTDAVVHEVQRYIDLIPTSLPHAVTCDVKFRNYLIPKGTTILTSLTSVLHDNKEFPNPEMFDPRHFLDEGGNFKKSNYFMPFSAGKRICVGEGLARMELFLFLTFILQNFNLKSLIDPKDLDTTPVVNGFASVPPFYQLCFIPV
measurementDescription: Cytochrome panel assay with activity outcomes
experimentalParameters: recombinant CYP, pro-luciferin dealkylation, luminescence, p450-cyp2c19; series mostly up to 57.1 µM
Description: The P450 gene superfamily is involved in the metabolism and clearance of xenobiotics. This assay used various human CYP P450 isozymes to measure the dealkylation of various pro-luciferin substrates to luciferin. The luciferin is then measured by luminescence after the addition of a luciferase detection reagent. […] Inhibitors and some substrates limit the production of luciferin, and decrease measured luminescence. […] 8, Detection, 1 sec, ViewLux luminescent read […]
The campaign covered roughly 16,000 compounds. About 5,800 (36%) were called active. Inconclusive results (about 23%) are left out. Calls come from the whole dose curve; as a rule, active = well fitted curve in the direction sought with a large enough effect; inconclusive = small, poorly fitted or top-dose-only effect, or effect the other way; inactive = no such curve, though single readings can be large or run the other way. The list shows a part of the results.
Respond using exactly one of the listed classes: t for active, f for inactive

>>> classname("Cn1c(CNC(=O)Nc2ccccc2)nnc1SCc1ccccc1")
"t"
>>> classname("CNc1ncnc2c1ncn2[C@H]1C[C@H](OP(=O)(O)O)[C@H](COP(=O)(O)O)O1")
"t"
>>> classname("COc1ccc(-n2c(C)n[nH]c2=O)cc1OC")
"f"
>>> classname("CNc1ncnc2c1ncn2[C@@H]1O[C@@H](CO)[C@H](O)[C@@H]1O")
"f"
>>> classname("CNc1ncnc2c1ncn2[C@H]1C[C@@H](OP(=O)(O)O)[C@H](COP(=O)(O)O)O1")
"f"

Query :: Write down the call the test reported for this compound. Item: CCOc1ccc(N/N=C(/C#N)C(N)=O)cc1
Result :: t

###

target: Cytochrome P450 2C19 (Homo sapiens) (UniProt P33261)
measurementDescription: Cytochrome panel assay with activity outcomes
experimentalParameters: recombinant CYP, pro-luciferin dealkylation, luminescence, p450-cyp2c19; series mostly up to 57.1 µM
About 5,800 (36%) of roughly 16,000 compounds were called active. About 23% were inconclusive and are not listed. This is one part of the list.
recordedMetric: AC50

>>> observedvalue("COCCNC(=O)[C@H](C)[C@@H]1C[C@@]1(C)[C@@H](NC(=O)OCc1ccccc1)c1ccccc1")
"3.16 µM (active)"
>>> observedvalue("COc1ccc2[nH]cc(CCNc3ncncc3-c3ccccc3Cl)c2c1")
"0.0631 µM (active)"
>>> observedvalue("COc1ccc(Oc2ncc3nc(-c4cc(F)cc(F)c4)c(=O)n(C)c3n2)cc1")
"inactive"
>>> observedvalue("CN(C)Cc1ccccc1-c1cncnc1NC1CC1")
"inactive"
>>> observedvalue("Cc1nc2cnc(Oc3ccccc3)nc2n(C)c1=O")
"inactive"

Query :: Record request: AC50 value, item CC(=O)NCCNc1ncncc1-c1ccccc1CN(C)C
Result :: inactive

Query :: Subsequent entry: CC(=O)Nc1cccc(NC(=O)C2CCCN2C(=O)Nc2ccccc2C)c1 (stereo not given)
Result :: inactive

Query :: Same lookup for Cc1cc(NC(=O)c2ccco2)ccc1-n1cnnn1 , please.
Result :: 17.8 µM (active)

Query :: What about this compound? COc1ccc(Oc2ncc3nc(CCc4ccccc4)c(=O)n(C)c3n2)cc1
Result :: 10 µM (active)

Query :: Cn1c(=O)c(-c2cc(F)cc(F)c2)nc2cnc(Oc3ccccc3)nc21 ?
Result :: inactive

Query :: Please give the result for Cc1cccc(C)c1NC(=O)C(c1ccc(Cl)cc1Cl)N1CCCCC1 (stereo not given) too.
Result :: 15.8 µM (active)

Query :: Entry to check: Nn1nnc2ccccc21
Result :: inactive

Query :: What do we get for CCCn1c(=O)c2[nH]c(C3CCCC3)nc2n(CCC)c1=O ?
Result :: inactive

Query :: Please do the same for CN(Cc1cc2ccccc2[nH]c1=O)S(C)(=O)=O as well.
Result :: inactive
